Protocol Notes: in vivo
Measurement Context: rat, 1 mg/kg
Readout: bioavailability (%)
Just the number in %, nothing appended.

Form field: reported bioavailability of NC(=O)CC[C@@H]1NC(=O)[C@H](Cc2ccccc2)NC(=O)[C@H](Cc2ccc(O)cc2)NC(=O)CCSSC[C@@H](C(=O)N2CCC[C@H]2C(=O)N[C@H](CCCN=C(N)N)C(=O)NCC(N)=O)NC(=O)[C@H](CC(N)=O)NC1=O
0.1

---

Protocol Notes: in vitro
Measurement Context: human
Readout: Papp (×10⁻⁶ cm/s)
Just the number in ×10⁻⁶ cm/s, nothing appended.

Form field: reported Papp of NC(=O)CC[C@@H]1NC(=O)[C@H](Cc2ccccc2)NC(=O)[C@H](Cc2ccc(O)cc2)NC(=O)CCSSC[C@@H](C(=O)N2CCC[C@H]2C(=O)N[C@H](CCCN=C(N)N)C(=O)NCC(N)=O)NC(=O)[C@H](CC(N)=O)NC1=O
0.04
